Ref: paper PMC10397247

# target-of-assay: T1, 4H3427-AA
# T1 chain: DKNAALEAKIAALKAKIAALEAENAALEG
# test-protocol: two-hybrid library CCmax;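 also: natural log of median RNA to DNA barcode read ratio; higher means stronger binding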
# condition-details: mean of both orientations
The entries below come with measured interaction score values attached.

These recorded examples may help you get a feel for the data.
DENAALKAEIAALEAEIAALKAKNAALKG [4H1552-AA]: 1.64
DKIAALKAEIAALEAEIAALKAKNAALEG [4H2575-AA]: 0.849
DKIAALKAEIAALKAENAALEAEIAALKG [4H2642-AA]: -1.25

Now examine the next entry.
Using known records, supply interaction score for DKIAALEAENAALEAEIAALKAKIAALKG [4H2190-AA] -1.15
